# RUN_DESCRIPTION: in vitro
# ASSAY_CONDITIONS: African green monkey
Exercise: for every item that follows, state its recorded CC50.

Problem: Given the entry CC(C)=CCCC(C)(O)C1CCC2(C)C1C(O)CC1C3(C)CCC(OC4OC(CO)C(O)C(O)C4OC4OC(CO)C(O)C(O)C4OC4OCC(O)C(O)C4O)C(C)(C)C3CCC12C (centres unmarked) [Notoginsenoside Ft1, notoginsenoside Ft1] , report its measured CC50.
Solution: > 250 µM

Problem: Fill blank: measured CC50 of the compound O=C1OC[C@H]2OC(O)[C@H](O)[C@@H](O)[C@@H]2OC(=O)c2cc(O)c(O)c(O)c2-c2c(O)c(O)c3oc(=O)c4c(c(O)c(O)c5oc(=O)c2c3c54)-c2c1cc(O)c(O)c2O (mixture of isomers) is ____.
Solution: > 125 µM
